- Assay System: EGFR (form in the assay not stated) (human, UniProt P00533 25-645, limits assumed)
- Protocol Summary: ELISA, NEM conjugate 10 nM
Assay Metric: binding ratio vs parent P54AR4-83v2 (ratio)
Numeric only. Scale: ratio

Example results:
# Binder, Units Text, binding ratio vs parent P54AR4-83v2
records = [
    ("P54AR4-83v2 S30C, NEM conjugate (designed binder, NEM on Cys 30, His-tagged) LPAPKNLVVSEVTEDSARLSWDDPWAFYECFLIQYQESEKVGEAIVLTVPGSERSYDLTGLKPGTEYTVSIYGVHNVYKDTNMRGLPLSAIFTT", "ratio", 0.9),
    ("P54AR4-83v2 K79C, NEM conjugate (designed binder, NEM on Cys 79, His-tagged) LPAPKNLVVSEVTEDSARLSWDDPWAFYESFLIQYQESEKVGEAIVLTVPGSERSYDLTGLKPGTEYTVSIYGVHNVYCDTNMRGLPLSAIFTT", "ratio", 0.9),
    ("P54AR4-83v2 G85C, NEM conjugate (designed binder, NEM on Cys 85, His-tagged) LPAPKNLVVSEVTEDSARLSWDDPWAFYESFLIQYQESEKVGEAIVLTVPGSERSYDLTGLKPGTEYTVSIYGVHNVYKDTNMRCLPLSAIFTT", "ratio", 0.19),
    ("P54AR4-83v2 E14C, NEM conjugate (designed binder, NEM on Cys 14, His-tagged) LPAPKNLVVSEVTCDSARLSWDDPWAFYESFLIQYQESEKVGEAIVLTVPGSERSYDLTGLKPGTEYTVSIYGVHNVYKDTNMRGLPLSAIFTT", "ratio", 1.11),
    ("P54AR4-83v2 M83C, NEM conjugate (designed binder, NEM on Cys 83, His-tagged) LPAPKNLVVSEVTEDSARLSWDDPWAFYESFLIQYQESEKVGEAIVLTVPGSERSYDLTGLKPGTEYTVSIYGVHNVYKDTNCRGLPLSAIFTT", "ratio", 0.07),
]

Turning to the following binder.
Record summary for P54AR4-83v2 A90C, NEM conjugate (designed binder, NEM on Cys 90, His-tagged) LPAPKNLVVSEVTEDSARLSWDDPWAFYESFLIQYQESEKVGEAIVLTVPGSERSYDLTGLKPGTEYTVSIYGVHNVYKDTNMRGLPLSCIFTT : reported binding ratio vs parent P54AR4-83v2 = 0.94
